# system: FXR (farnesoid-X-receptor; pCMVSPORT-FXR) (Homo sapiens)
# Construct: FXR expressed from pCMVSPORT-FXR, co-transfected with pSG5-RXR in HepG2 cells; p(hsp27)TKLUC luciferase reporter (IR1 element), Renilla normalisation
# Sequence (Q96RI1 whole entry): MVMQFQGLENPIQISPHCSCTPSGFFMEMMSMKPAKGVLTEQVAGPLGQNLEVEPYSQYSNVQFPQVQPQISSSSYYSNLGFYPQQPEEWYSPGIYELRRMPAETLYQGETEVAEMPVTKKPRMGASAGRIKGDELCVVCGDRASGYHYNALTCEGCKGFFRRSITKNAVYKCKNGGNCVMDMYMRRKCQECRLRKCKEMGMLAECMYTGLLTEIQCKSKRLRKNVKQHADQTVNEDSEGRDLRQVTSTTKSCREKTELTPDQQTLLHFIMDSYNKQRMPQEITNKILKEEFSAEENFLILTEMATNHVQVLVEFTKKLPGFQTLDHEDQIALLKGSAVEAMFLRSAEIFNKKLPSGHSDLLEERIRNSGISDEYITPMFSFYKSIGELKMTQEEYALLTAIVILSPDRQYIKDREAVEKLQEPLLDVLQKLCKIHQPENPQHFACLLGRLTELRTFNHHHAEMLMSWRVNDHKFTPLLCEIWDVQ
# Sequence (P19793 whole entry partner): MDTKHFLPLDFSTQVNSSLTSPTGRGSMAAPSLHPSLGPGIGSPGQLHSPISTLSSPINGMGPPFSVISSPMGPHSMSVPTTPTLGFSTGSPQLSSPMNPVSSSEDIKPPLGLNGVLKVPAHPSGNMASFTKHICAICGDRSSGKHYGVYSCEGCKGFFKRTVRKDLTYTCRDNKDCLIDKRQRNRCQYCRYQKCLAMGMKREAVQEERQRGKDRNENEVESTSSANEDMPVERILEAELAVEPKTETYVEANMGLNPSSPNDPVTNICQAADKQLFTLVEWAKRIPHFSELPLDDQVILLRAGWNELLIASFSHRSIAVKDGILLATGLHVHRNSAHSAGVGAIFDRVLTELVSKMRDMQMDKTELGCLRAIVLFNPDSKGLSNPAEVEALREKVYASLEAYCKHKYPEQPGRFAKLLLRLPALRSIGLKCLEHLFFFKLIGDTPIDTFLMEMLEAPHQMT
# test.protocol: luciferase reporter transactivation assay in transfected HepG2, antagonist mode
pEC50: −log10 of the molar value.
readout.type: pEC50

Task item: Quick check: pEC50 of C=C1[C@@H](O)CC[C@@]2(C)[C@H]1CCC1=C3CC[C@H]([C@H](C)CC[C@H](CC)C(C)C)[C@@]3(C)CC[C@@H]12 ?
Reply: ~4.30
